Where these numbers come from: patent US20110071180A1

Give Ki for every item shown.
- System name: rat α4β2 nAChR subtype (Rattus norvegicus, UniProt P09483+P12390)
- Construct: The cerebral cortex was removed and placed in 20 volumes (weight:volume) of ice-cold preparative buffer
- Sequence (P09483 31-630): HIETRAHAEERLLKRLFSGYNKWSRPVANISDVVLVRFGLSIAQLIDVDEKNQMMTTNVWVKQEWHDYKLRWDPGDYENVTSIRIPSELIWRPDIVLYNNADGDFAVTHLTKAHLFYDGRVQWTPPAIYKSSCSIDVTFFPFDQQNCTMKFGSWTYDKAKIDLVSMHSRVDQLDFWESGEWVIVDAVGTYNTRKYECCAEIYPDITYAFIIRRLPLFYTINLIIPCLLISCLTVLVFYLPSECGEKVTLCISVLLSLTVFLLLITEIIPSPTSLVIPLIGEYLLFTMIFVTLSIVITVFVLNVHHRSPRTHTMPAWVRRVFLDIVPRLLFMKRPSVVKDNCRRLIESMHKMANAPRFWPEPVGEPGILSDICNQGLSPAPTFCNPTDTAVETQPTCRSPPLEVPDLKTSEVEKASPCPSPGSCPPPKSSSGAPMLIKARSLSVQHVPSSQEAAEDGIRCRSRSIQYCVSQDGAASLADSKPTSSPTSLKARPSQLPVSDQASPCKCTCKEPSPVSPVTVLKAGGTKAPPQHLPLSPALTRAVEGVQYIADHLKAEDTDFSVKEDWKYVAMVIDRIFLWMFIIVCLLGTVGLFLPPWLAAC
- Sequence (P12390 25-500): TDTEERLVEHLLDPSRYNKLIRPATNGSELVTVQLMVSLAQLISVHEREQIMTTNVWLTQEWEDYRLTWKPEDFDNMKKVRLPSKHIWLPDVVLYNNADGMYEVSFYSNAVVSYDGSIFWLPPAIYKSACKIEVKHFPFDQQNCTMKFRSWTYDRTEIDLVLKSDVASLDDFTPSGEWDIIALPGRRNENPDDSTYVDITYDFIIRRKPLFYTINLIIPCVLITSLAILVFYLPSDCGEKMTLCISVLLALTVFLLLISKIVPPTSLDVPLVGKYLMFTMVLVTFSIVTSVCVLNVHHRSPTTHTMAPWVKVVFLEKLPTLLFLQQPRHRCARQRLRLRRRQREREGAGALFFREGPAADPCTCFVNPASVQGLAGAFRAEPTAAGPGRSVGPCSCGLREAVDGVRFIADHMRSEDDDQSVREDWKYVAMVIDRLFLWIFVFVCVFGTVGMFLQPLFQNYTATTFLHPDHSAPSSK
- Assay details: Radioligand binding, [3H]nicotine, rat cortex membranes
- Test settings: [3H]nicotine 5 nM
Number in nM, nothing else.

Response field Ki (rat α4β2 nAChR subtype (Rattus norvegicus, UniProt P09483+P12390)) for item `O=C(C1CC1)N1CC2CNCC(C2)C1` : 2.8

Response field Ki (rat α4β2 nAChR subtype (Rattus norvegicus, UniProt P09483+P12390)) for item CC(F)(F)C(=O)N1CC2CNCC2C1 (centres unmarked) : 8.6

Response field Ki (rat α4β2 nAChR subtype (Rattus norvegicus, UniProt P09483+P12390)) for item O=C(C1CC2C=CC1C2)N1CC2CNCC(C2)C1 (centres unmarked) : 22.7

Response field Ki (rat α4β2 nAChR subtype (Rattus norvegicus, UniProt P09483+P12390)) for item CCC(=O)N1CC2CNCC2C1 (centres unmarked) : 16.9

Response field Ki (rat α4β2 nAChR subtype (Rattus norvegicus, UniProt P09483+P12390)) for item COCC(=O)N1CC2CNCC2C1 (centres unmarked) : 137

Response field Ki (rat α4β2 nAChR subtype (Rattus norvegicus, UniProt P09483+P12390)) for item O=C(N1CC2CNCC2C1)C1(C(F)(F)F)CC1 (centres unmarked) : 419

Response field Ki (rat α4β2 nAChR subtype (Rattus norvegicus, UniProt P09483+P12390)) for item `O=C(C1=CCCC1)N1CC2CNCC(C2)C1` : 177

Response field Ki (rat α4β2 nAChR subtype (Rattus norvegicus, UniProt P09483+P12390)) for item `CS(=O)(=O)CC(=O)N1CC2CNCC(C2)C1` : 190

Response field Ki (rat α4β2 nAChR subtype (Rattus norvegicus, UniProt P09483+P12390)) for item O=C([C@H]1C[C@@H]1F)N1CC2CNCC(C2)C1 [Example 10-79] : 4.1

Response field Ki (rat α4β2 nAChR subtype (Rattus norvegicus, UniProt P09483+P12390)) for item CC(C)=CC(=O)N1CC2CNCC2C1 (centres unmarked) : 54.2

Response field Ki (rat α4β2 nAChR subtype (Rattus norvegicus, UniProt P09483+P12390)) for item O=C(CF)N1CC2CNCC2C1 (centres unmarked) : 62.2

Response field Ki (rat α4β2 nAChR subtype (Rattus norvegicus, UniProt P09483+P12390)) for item O=C(C1CC=CC1)N1CC2CNCC2C1 (centres unmarked) : 28.4

Response field Ki (rat α4β2 nAChR subtype (Rattus norvegicus, UniProt P09483+P12390)) for item O=C([C@@H]1C[C@@H]1F)N1CC2CNCC2C1 (some centres unmarked) : 6.6

Response field Ki (rat α4β2 nAChR subtype (Rattus norvegicus, UniProt P09483+P12390)) for item O=C([C@H]1C[C@H]1F)N1CC2CNCC2C1 (some centres unmarked) : 10

Response field Ki (rat α4β2 nAChR subtype (Rattus norvegicus, UniProt P09483+P12390)) for item O=C(C1CC=CCC1)N1CC2CNCC(C2)C1 (centres unmarked) : 198

Response field Ki (rat α4β2 nAChR subtype (Rattus norvegicus, UniProt P09483+P12390)) for item O=C(C1CC1(F)F)N1CC2CNCC(C2)C1 (centres unmarked) : 1.2

Response field Ki (rat α4β2 nAChR subtype (Rattus norvegicus, UniProt P09483+P12390)) for item O=C(C(F)F)N1CC2CNCC2C1 (centres unmarked) : 4.3

Response field Ki (rat α4β2 nAChR subtype (Rattus norvegicus, UniProt P09483+P12390)) for item O=C([C@H]1C[C@H]1F)N1CC2CNCC(C2)C1 [Example 10-78] : 2.9

Response field Ki (rat α4β2 nAChR subtype (Rattus norvegicus, UniProt P09483+P12390)) for item `O=C(C(F)F)N1CC2CNCC(C2)C1` : 1.7

Response field Ki (rat α4β2 nAChR subtype (Rattus norvegicus, UniProt P09483+P12390)) for item O=C([C@H]1C[C@H]1F)N1CC2CNCC(C2)C1 [Example 10-92] : 15.9

Response field Ki (rat α4β2 nAChR subtype (Rattus norvegicus, UniProt P09483+P12390)) for item O=C(CO)N1CC2CNCC2C1 (centres unmarked) : 264

Response field Ki (rat α4β2 nAChR subtype (Rattus norvegicus, UniProt P09483+P12390)) for item `CC1(C(=O)N2CC3CNCC(C3)C2)CC1` : 874

Response field Ki (rat α4β2 nAChR subtype (Rattus norvegicus, UniProt P09483+P12390)) for item COC1CC(C(=O)N2CC3CNCC3C2)C1 (centres unmarked) : 83.7

Response field Ki (rat α4β2 nAChR subtype (Rattus norvegicus, UniProt P09483+P12390)) for item `O=C([C@@H]1C[C@H]1F)N1CC2CNCC(C2)C1` : 1.8

Response field Ki (rat α4β2 nAChR subtype (Rattus norvegicus, UniProt P09483+P12390)) for item O=C(C1CCC[C@H]1O)N1CC2CNCC(C2)C1 (some centres unmarked) : 776

Response field Ki (rat α4β2 nAChR subtype (Rattus norvegicus, UniProt P09483+P12390)) for item `O=C([C@@H]1C[C@@H]1F)N1CC2CNCC(C2)C1` : 0.8

Response field Ki (rat α4β2 nAChR subtype (Rattus norvegicus, UniProt P09483+P12390)) for item O=C([C@H]1C[C@@H]1F)N1CC2CNCC2C1 (some centres unmarked) [Example 10-29] : 21.3

Response field Ki (rat α4β2 nAChR subtype (Rattus norvegicus, UniProt P09483+P12390)) for item `O=C(C1CCC1)N1CC2CNCC(C2)C1` : 1.6

Response field Ki (rat α4β2 nAChR subtype (Rattus norvegicus, UniProt P09483+P12390)) for item CS(=O)(=O)CC(=O)N1CC2CNCC2C1 (centres unmarked) : 238

Response field Ki (rat α4β2 nAChR subtype (Rattus norvegicus, UniProt P09483+P12390)) for item `CC1(C)C(C(=O)N2CC3CNCC(C3)C2)C1(C)C` : 119

Response field Ki (rat α4β2 nAChR subtype (Rattus norvegicus, UniProt P09483+P12390)) for item `COCCC(=O)N1CC2CNCC(C2)C1` : 175

Response field Ki (rat α4β2 nAChR subtype (Rattus norvegicus, UniProt P09483+P12390)) for item `CC(C)(F)C(=O)N1CC2CNCC(C2)C1` : 342

Response field Ki (rat α4β2 nAChR subtype (Rattus norvegicus, UniProt P09483+P12390)) for item O=C([C@@H]1C[C@H]1F)N1CC2CNCC2C1 (some centres unmarked) : 12.2

Response field Ki (rat α4β2 nAChR subtype (Rattus norvegicus, UniProt P09483+P12390)) for item CC(=O)N1CC2CNCC2C1 (centres unmarked) : 20.5

Response field Ki (rat α4β2 nAChR subtype (Rattus norvegicus, UniProt P09483+P12390)) for item O=C(CC1CC1)N1CC2CNCC2C1 (centres unmarked) : 62.7

Response field Ki (rat α4β2 nAChR subtype (Rattus norvegicus, UniProt P09483+P12390)) for item O=C(C1CCC1)N1CC2CNCC2C1 (centres unmarked) : 12.5

Response field Ki (rat α4β2 nAChR subtype (Rattus norvegicus, UniProt P09483+P12390)) for item O=C([C@@H]1CC2C=CC1C2)N1CC2CNCC2C1 (some centres unmarked) : 9.3

Response field Ki (rat α4β2 nAChR subtype (Rattus norvegicus, UniProt P09483+P12390)) for item O=C(C1CC(F)C1)N1CC2CNCC2C1 (centres unmarked) : 7.2

Response field Ki (rat α4β2 nAChR subtype (Rattus norvegicus, UniProt P09483+P12390)) for item CC1CC1C(=O)N1CC2CNCC(C2)C1 (centres unmarked) : 1.4

Response field Ki (rat α4β2 nAChR subtype (Rattus norvegicus, UniProt P09483+P12390)) for item CC1C(C)C1C(=O)N1CC2CNCC2C1 (centres unmarked) : 133

Response field Ki (rat α4β2 nAChR subtype (Rattus norvegicus, UniProt P09483+P12390)) for item O=C(N1CC2CNCC2C1)C1(O)CC1 (centres unmarked) : 445
